system: MDR1 (P-gp); assay: Blood-brain-barrier (BBB) penetration potential via MDCK-MDR1 permeability assay; conditions: dog, MDCK-MDR1, pH 7.4, MDCK-MDR1: Papp B-A, B-A direction
Entries and their Papp B→A at 120 min, 5 μM
Please state the figure in ×10⁻⁶ cm/s; there is no need to write the unit.

Example entries begin here.
{"COMPOUND": "CN(c1ccc(-c2cc(F)c(-n3ccnn3)cc2O)nn1)[C@H]1C[C@@H]2CC[C@@H](N2)[C@H]1F [Compound 52B]", "MEASUREMENT UNITS": "×10⁻⁶ cm/s", "QUANTITATIVE READOUT": 54.4}
{"COMPOUND": "CN(c1ccc(-c2cc(F)c(-c3ccoc(=O)c3)cc2O)nn1)[C@@H]1C[C@H]2CC[C@H](N2)[C@@H]1F [Compound 17A]", "MEASUREMENT UNITS": "×10⁻⁶ cm/s", "QUANTITATIVE READOUT": 39.2}
{"COMPOUND": "C#Cc1ccc(-c2ccc(N(C)[C@H]3C[C@@H]4CC[C@@H](N4)[C@H]3F)nn2)c(O)c1 [Compound 10B]", "MEASUREMENT UNITS": "×10⁻⁶ cm/s", "QUANTITATIVE READOUT": 21.2}

Please turn your attention to the following entry.
Dear colleague, I am looking for the recorded Papp B→A at 120 min, 5 μM of the following compound: CN(c1ccc(-c2ccc(C#N)cc2O)nn1)[C@H]1C[C@@H]2CCC[C@@H](N2)[C@H]1F [Compound 39B]
40.6

====

test system: MDR1 (P-gp); assay: Blood-brain-barrier (BBB) penetration potential via MDCK-MDR1 permeability assay; settings: dog, MDCK-MDR1, pH 7.4, MDCK-MDR1: Papp A-B, A-B
Class (by Papp A→B at 120 min, 5 μM) -- lower: < 40 nm/s; middle: ≥ 40 nm/s and < 100 nm/s; upper: ≥ 100 nm/s

Category lookup for the molecule Cc1cc(=O)c2cc(-c3ccc(N(C)[C@H]4C[C@@H]5CC[C@H]([C@H]4F)N5C)nn3)c(O)cc2o1 [Compound 100B]
middle

Category lookup for the molecule Cc1nc2cc(-c3ccc(N(C)[C@@H]4C[C@H]5CC[C@H](N5)[C@@H]4F)nn3)c(O)cc2s1 [Compound 115A]
middle

Category lookup for the molecule CN(c1ccc(-c2cc3cnccc3cc2O)nn1)[C@@H]1C[C@H]2CC(F)(F)[C@@H](C1)N2 [Compound 126A]
upper

Category lookup for the molecule Cc1nc2cc(-c3ccc(N(C)[C@H]4C[C@@H]5CC[C@H]([C@H]4F)N5C)nn3)c(O)cc2c(=O)n1C [Compound 105B]
lower

Category lookup for the molecule CN(c1ccc(-c2cc(F)c(-n3ccnn3)cc2O)nn1)[C@H]1C[C@@H]2CC[C@H]([C@H]1F)N2C [Compound 103B]
upper

Category lookup for the molecule CN(c1ccc(-c2cc3oc(C(=O)N4CCC4)cc3cc2O)nn1)[C@H]1C[C@@H]2CC[C@@H](N2)[C@H]1F [Compound 112B]
lower

Category lookup for the molecule Cc1nc2cc(O)c(-c3ccc(N(C)[C@@H]4C[C@H]5CC[C@H](N5)[C@@H]4F)nn3)cc2s1 [Compound 116A]
middle

Category lookup for the molecule CN(c1ccc(-c2cc3ccncc3cc2O)nn1)[C@H]1C[C@@H]2CC(F)(F)[C@H](C1)N2 [Compound 125B]
upper

Category lookup for the molecule CN(c1ccc(-c2cc3ncn(C)c(=O)c3cc2O)nn1)[C@H]1C[C@@H]2CC[C@H]([C@H]1F)N2C [Compound 101B]
lower

====

tested on: MDR1-MDCK cell monolayers; experiment: Blood-brain-barrier (BBB) penetration potential via MDCK-MDR1 permeability assay; settings: A-B direction
Entries and their MDCK-MDR1: % Recov A-B
Please state the figure in %; there is no need to write the unit.

Example entries begin here.
{"MOLECULE": "CN(c1ccc(-c2cc3c(=O)n(C)cnc3cc2O)nn1)[C@H]1C[C@@H]2CC[C@@H](N2)[C@H]1F [Compound 85B]", "QUANTITATIVE READOUT": 98}
{"MOLECULE": "CN(c1ccc(-c2cc3c(=O)n(C)ccc3cc2O)nn1)[C@H]1C[C@@H]2CC[C@@H](N2)[C@H]1F [Compound 83B]", "QUANTITATIVE READOUT": 77}
{"MOLECULE": "CN(c1ccc(-c2ccc(-c3cnn(C)c3)cc2O)nn1)[C@@H]1C[C@H]2CC(F)(F)[C@@H](C1)N2", "QUANTITATIVE READOUT": 75}
{"MOLECULE": "O=C(c1cc2cc(O)c(-c3ccc(N(C4CC4)[C@H]4C[C@@H]5CC[C@@H](N5)[C@H]4F)nn3)cc2o1)N1CCC1 [Compound 57B]", "QUANTITATIVE READOUT": 99}
{"MOLECULE": "CN(c1ccc(-c2ccc(-c3cnn(C(F)F)c3)cc2O)nn1)[C@@H]1C[C@H]2CC[C@H](N2)[C@@H]1F [Compound 20A]", "QUANTITATIVE READOUT": 47}

Dear colleague, I am looking for the recorded MDCK-MDR1: % Recov A-B of the following molecule: CN(c1ccc(-c2cc3occc(=O)c3cc2O)nn1)[C@H]1C[C@@H]2CC[C@@H](N2)[C@H]1F [Compound 43B]
66

Dear colleague, I am looking for the recorded MDCK-MDR1: % Recov A-B of the following molecule: CN(c1ccc(-c2ccc(-n3cnc(C#N)c3)cc2O)nn1)[C@H]1C[C@@H]2CCC[C@@H](N2)[C@H]1F [Compound 63B]
72

Dear colleague, I am looking for the recorded MDCK-MDR1: % Recov A-B of the following molecule: CN(c1ccc(-c2ccc(-c3cnn(C)c3)cc2O)nn1)C1CC2COCC(N2)C1F (single isomer, unassigned) [Compound 80A]
68

Dear colleague, I am looking for the recorded MDCK-MDR1: % Recov A-B of the following molecule: Cc1ccc(-c2ccc(-c3ccc(N(C)[C@@H]4C[C@H]5CC[C@H](N5)[C@@H]4F)nn3)c(O)c2)nn1 (single isomer, unassigned) [Compound 25A]
99

Dear colleague, I am looking for the recorded MDCK-MDR1: % Recov A-B of the following molecule: Cc1ccc(-c2ccc(-c3ccc(N(C)[C@H]4C[C@@H]5CCC[C@@H](N5)[C@H]4F)nn3)c(O)c2)nn1 [Compound 27B]
98

Dear colleague, I am looking for the recorded MDCK-MDR1: % Recov A-B of the following molecule: Cc1cc(=O)c2cc(O)c(-c3ccc(N(C)[C@@H]4C[C@H]5CC[C@H](N5)[C@@H]4F)nn3)cc2o1 [Compound 49A]
93

Dear colleague, I am looking for the recorded MDCK-MDR1: % Recov A-B of the following molecule: CN(c1ccc(-c2ccc(-n3cnc(Cl)c3)cc2O)nn1)[C@H]1C[C@@H]2CC(F)(F)[C@H](C1)N2 [Compound 37B]
54

Dear colleague, I am looking for the recorded MDCK-MDR1: % Recov A-B of the following molecule: CN(c1ccc(-c2ccc(-c3cnn(C)c3)cc2O)nn1)C1CC2COCC(N2)C1F (single isomer, unassigned) [Compound 80B]
76

Dear colleague, I am looking for the recorded MDCK-MDR1: % Recov A-B of the following molecule: CN(c1ccc(-c2ccc(-c3cnn(C)c3)cc2O)nn1)[C@H]1C[C@H]2CC(F)(F)[C@H](C1)N2 (single isomer, unassigned)
80

Dear colleague, I am looking for the recorded MDCK-MDR1: % Recov A-B of the following molecule: CN(c1ccc(-c2cc3ncn(CC(F)(F)F)c(=O)c3cc2O)nn1)[C@H]1C[C@@H]2CCC[C@@H](N2)[C@H]1F [Compound 58B]
76

Dear colleague, I am looking for the recorded MDCK-MDR1: % Recov A-B of the following molecule: CN(c1ccc(-c2cc3ccncc3s2)nn1)[C@H]1C[C@@H]2CC[C@@H](N2)[C@H]1F [Compound 65B]
84

Dear colleague, I am looking for the recorded MDCK-MDR1: % Recov A-B of the following molecule: CN(c1ccc(-c2cc3nnccc3cc2O)nn1)[C@@H]1C[C@H]2CC[C@H](N2)[C@@H]1F [Compound 89A]
92

Dear colleague, I am looking for the recorded MDCK-MDR1: % Recov A-B of the following molecule: CN(c1ccc(-c2ccc(-c3cn[nH]c3)cc2O)nn1)[C@@H]1C[C@H]2CC[C@H](N2)[C@@H]1F (single isomer, unassigned) [Compound 42A]
87

Dear colleague, I am looking for the recorded MDCK-MDR1: % Recov A-B of the following molecule: `CN(c1ccc(-c2ccc(-n3nccn3)cc2O)nn1)[C@H]1C[C@@H]2CCC[C@@H](N2)[C@H]1F`
30

====

tested on: MDR1 (P-gp); assay: Blood-brain-barrier (BBB) penetration potential via MDCK-MDR1 permeability assay; details: dog, MDCK-MDR1, pH 7.4, MDCK-MDR1: Papp B-A, B-A direction
PROPERTY LABEL: Papp B→A at 120 min, 5 μM (×10⁻⁶ cm/s)
Please state the figure in ×10⁻⁶ cm/s; there is no need to write the unit.

Example entries begin here.
{"COMPOUND": "CN(c1ccc(-c2ccc(-c3cnn(C)c3)cc2O)nn1)[C@H]1C[C@@H]2CCC[C@@H](N2)[C@@H]1F [Compound 14B]", "MEASURED ON": "MDR1 (P-gp)", "Papp B→A at 120 min, 5 μM, ×10⁻⁶ cm/s": 32.1}
{"COMPOUND": "COc1cn(-c2ccc(-c3ccc(N(C)[C@@H]4C[C@H]5CC(F)(F)[C@@H](C4)N5)nn3)c(O)c2)cn1 [Compound 19A]", "MEASURED ON": "MDR1 (P-gp)", "Papp B→A at 120 min, 5 μM, ×10⁻⁶ cm/s": 56.6}
{"COMPOUND": "CN(c1ccc(-c2ccc(-c3cnn(C)c3)cc2O)nn1)C1CC2COCC(N2)C1F (single isomer, unassigned) [Compound 80A]", "MEASURED ON": "MDR1 (P-gp)", "Papp B→A at 120 min, 5 μM, ×10⁻⁶ cm/s": 53.6}
{"COMPOUND": "Cc1cnc(-c2ccc(-c3ccc(N(C)[C@@H]4C[C@H]5CCC[C@H](N5)[C@@H]4F)nn3)c(O)c2)cn1 [Compound 26A]", "MEASURED ON": "MDR1 (P-gp)", "Papp B→A at 120 min, 5 μM, ×10⁻⁶ cm/s": 43.6}
{"COMPOUND": "CN(c1ccc(-c2ccc(-c3nnco3)cc2O)nn1)[C@H]1C[C@@H]2CC[C@@H](N2)[C@H]1F [Compound 44B]", "MEASURED ON": "MDR1 (P-gp)", "Papp B→A at 120 min, 5 μM, ×10⁻⁶ cm/s": 54.7}
{"COMPOUND": "CN(c1ccc(-c2ccc(-c3cnc(C#N)cn3)cc2O)nn1)[C@H]1C[C@@H]2CCC[C@@H](N2)[C@H]1F [Compound 28B]", "MEASURED ON": "MDR1 (P-gp)", "Papp B→A at 120 min, 5 μM, ×10⁻⁶ cm/s": 38.9}
{"COMPOUND": "CN(c1ccc(-c2ccc(-c3cn[nH]c3)cc2O)nn1)[C@H]1C[C@@H]2CC[C@@H](N2)[C@H]1F (single isomer, unassigned) [Compound 42B]", "MEASURED ON": "MDR1 (P-gp)", "Papp B→A at 120 min, 5 μM, ×10⁻⁶ cm/s": 27.7}
{"COMPOUND": "Cc1cnc(-c2ccc(-c3ccc(N(C)[C@H]4C[C@@H]5CCC[C@@H](N5)[C@H]4F)nn3)c(O)c2)o1 [Compound 16B]", "MEASURED ON": "MDR1 (P-gp)", "Papp B→A at 120 min, 5 μM, ×10⁻⁶ cm/s": 18.7}

Item: `CN(C)C(=O)c1cc2cc(O)c(-c3ccc(N(C)[C@@H]4C[C@H]5CC[C@H](N5)[C@@H]4F)nn3)cc2o1` Test system: MDR1 (P-gp) Read-out: Papp B→A at 120 min, 5 μM Value: ?
61.1

Item: CN(c1ccc(-c2cc3cnccc3cc2O)nn1)[C@H]1C[C@@H]2CC[C@H]([C@H]1F)N2C [Compound 93B] Test system: MDR1 (P-gp) Read-out: Papp B→A at 120 min, 5 μM Value: ?
22.3

Item: CN(c1ccc(-c2cc3ccncc3s2)nn1)[C@@H]1C[C@H]2CC[C@H](N2)[C@@H]1F [Compound 65A] Test system: MDR1 (P-gp) Read-out: Papp B→A at 120 min, 5 μM Value: ?
50.5

Item: CN(c1ccc(-c2cc3ccn(C)c(=O)c3cc2O)nn1)[C@H]1C[C@@H]2CC[C@@H](N2)[C@H]1F [Compound 84B] Test system: MDR1 (P-gp) Read-out: Papp B→A at 120 min, 5 μM Value: ?
50.9

Item: Cc1ccc(-c2ccc(-c3ccc(N(C)[C@H]4C[C@@H]5CC[C@@H](N5)[C@H]4F)nn3)c(O)c2)nn1 (single isomer, unassigned) [Compound 25B] Test system: MDR1 (P-gp) Read-out: Papp B→A at 120 min, 5 μM Value: ?
46.8

Item: CN(c1ccc(-c2ccc(-c3cnccn3)cc2O)nn1)[C@H]1C[C@@H]2CCC[C@@H](N2)[C@H]1F [Compound 24B] Test system: MDR1 (P-gp) Read-out: Papp B→A at 120 min, 5 μM Value: ?
33.8

Item: CN(c1ccc(-c2ccc(-c3cnc(C#N)cn3)cc2O)nn1)[C@@H]1C[C@H]2CCC[C@H](N2)[C@@H]1F [Compound 28A] Test system: MDR1 (P-gp) Read-out: Papp B→A at 120 min, 5 μM Value: ?
28.4

Item: Cc1cnc(-c2ccc(-c3ccc(N(C)[C@@H]4C[C@H]5CC[C@H](N5)[C@@H]4F)nn3)c(O)c2)o1 [Compound 48A] Test system: MDR1 (P-gp) Read-out: Papp B→A at 120 min, 5 μM Value: ?
29

Item: `CN(c1ccc(-c2cc3c(=O)[nH]ccc3s2)nn1)[C@@H]1C[C@H]2CC[C@H](N2)[C@@H]1F` Test system: MDR1 (P-gp) Read-out: Papp B→A at 120 min, 5 μM Value: ?
6.69

Every entry's value here was drawn from patent US12509460B2.
